Molecular target: UniProtKB Q9NYK1
Sequence (Q9NYK1 27-1049): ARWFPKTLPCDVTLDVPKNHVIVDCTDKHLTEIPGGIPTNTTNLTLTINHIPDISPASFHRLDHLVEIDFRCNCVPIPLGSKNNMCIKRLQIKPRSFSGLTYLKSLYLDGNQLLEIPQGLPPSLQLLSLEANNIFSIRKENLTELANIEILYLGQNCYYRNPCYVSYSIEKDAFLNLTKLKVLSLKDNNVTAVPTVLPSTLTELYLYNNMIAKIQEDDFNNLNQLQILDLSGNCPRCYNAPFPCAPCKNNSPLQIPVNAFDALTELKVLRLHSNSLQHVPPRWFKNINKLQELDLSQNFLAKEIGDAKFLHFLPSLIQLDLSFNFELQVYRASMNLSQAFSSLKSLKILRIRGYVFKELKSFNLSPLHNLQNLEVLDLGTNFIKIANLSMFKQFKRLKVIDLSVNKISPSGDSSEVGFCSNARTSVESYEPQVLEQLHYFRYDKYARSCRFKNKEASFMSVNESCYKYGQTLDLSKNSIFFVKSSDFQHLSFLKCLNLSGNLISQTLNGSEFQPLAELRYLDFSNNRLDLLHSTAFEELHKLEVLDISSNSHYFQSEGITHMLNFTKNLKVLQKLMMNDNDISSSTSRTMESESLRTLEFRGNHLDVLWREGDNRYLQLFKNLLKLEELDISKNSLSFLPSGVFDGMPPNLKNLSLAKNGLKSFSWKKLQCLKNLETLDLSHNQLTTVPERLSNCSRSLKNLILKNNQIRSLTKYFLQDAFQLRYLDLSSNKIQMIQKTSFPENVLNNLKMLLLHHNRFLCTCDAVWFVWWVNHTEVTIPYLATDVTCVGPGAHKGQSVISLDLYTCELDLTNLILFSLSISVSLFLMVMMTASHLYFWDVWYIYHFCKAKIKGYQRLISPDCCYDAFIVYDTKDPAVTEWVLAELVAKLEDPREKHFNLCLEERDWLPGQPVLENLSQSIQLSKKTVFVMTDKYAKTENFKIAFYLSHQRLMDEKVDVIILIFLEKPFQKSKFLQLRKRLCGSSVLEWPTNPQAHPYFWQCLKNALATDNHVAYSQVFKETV
Test: TLR7 inhibition reporter assay (HEK-Blue cells, secreted embryonic alkaline phosphatase reporter)
Conditions: HEK-Blue cells overexpressing human TLR7, stimulated with gardiquimod 7.5 μM; read-out: TLR 7 IC50
pIC50: −log10 of the molar value.
Quick reference for pIC50 among some compounds

compound	pIC50
CC(C)CN1CCC(N2CCC(c3cc(F)c4nc(-c5ccc(S(C)(=O)=O)cc5)n(C5CC5)c4c3)CC2)CC1	5.85
CN(C)C1CCN(Cc2ccc(-c3ccc4nc(-c5ccccc5)n(C)c4c3)cc2)CC1	6.10
Cc1cc(-c2ccc(CN3CC4(C3)CN(CC(C)C)C4)cc2)cc2c1nc(-c1ccc(S(C)(=O)=O)cc1)n2C	5.74
CC(C)CN1C2CCC1CC(N1CCC(c3cc(F)c4nc(-c5ccc(S(C)(=O)=O)cc5)n(C5CC5)c4c3)CC1)C2 (single isomer, unassigned) [Example 323]	5.68
CN(C)C1CCN(Cc2ccc(-c3ccc4nc(-c5ccc(S(C)(=O)=O)cc5)n(C)c4c3)cc2)CC1	5.89
CC(C)N1CCC(N2CCC(c3cc(F)c4nc(-c5ccc(S(C)(=O)=O)cc5)n(C)c4c3)CC2)CC1	4.59
Cn1c(-c2ccc(S(C)(=O)=O)cc2)nc2c(F)cc(C3CCN(C4CCCN(CC5CC5)CC4)CC3)cc21 (single isomer, unassigned) [Example 298]	5.52
CC(C)CN1C2CCC1CC(N1CCC(c3ccc4nc(-c5ccc(S(C)(=O)=O)cc5)[nH]c4c3F)CC1)C2 (single isomer, unassigned) [Example 219]	4.73
Cc1cc(-c2ccc(CN3C[C@H]4CN(C)C[C@H]4C3)c(F)c2)cc2c1nc(-c1ccc(S(C)(=O)=O)cc1)n2C	6.40
Cn1c(-c2ccc(S(C)(=O)=O)cc2)nc2c(F)cc(C3CCN(C4CCCN(C5COC5)CC4)CC3)cc21 (single isomer, unassigned) [Example 109]	4.76
CS(=O)(=O)c1ccc(-c2nc3c(F)cc(C4CCN(C5CC6CCC(C5)N6C5CCOCC5)CC4)cc3n2C2CC2)cc1 (centres unmarked) [Example 329]	5.92
CN(C)C1CCN(Cc2ccc(-c3ccc4nc(-c5ccc(C#N)cc5)n(C)c4c3)cc2)CC1	5.66
